Origin of the recorded values: ChEMBL document CHEMBL3880436

We begin with a simple list: items and their reported ED50.
Target: UniProt:P40238
Sequence (whole entry): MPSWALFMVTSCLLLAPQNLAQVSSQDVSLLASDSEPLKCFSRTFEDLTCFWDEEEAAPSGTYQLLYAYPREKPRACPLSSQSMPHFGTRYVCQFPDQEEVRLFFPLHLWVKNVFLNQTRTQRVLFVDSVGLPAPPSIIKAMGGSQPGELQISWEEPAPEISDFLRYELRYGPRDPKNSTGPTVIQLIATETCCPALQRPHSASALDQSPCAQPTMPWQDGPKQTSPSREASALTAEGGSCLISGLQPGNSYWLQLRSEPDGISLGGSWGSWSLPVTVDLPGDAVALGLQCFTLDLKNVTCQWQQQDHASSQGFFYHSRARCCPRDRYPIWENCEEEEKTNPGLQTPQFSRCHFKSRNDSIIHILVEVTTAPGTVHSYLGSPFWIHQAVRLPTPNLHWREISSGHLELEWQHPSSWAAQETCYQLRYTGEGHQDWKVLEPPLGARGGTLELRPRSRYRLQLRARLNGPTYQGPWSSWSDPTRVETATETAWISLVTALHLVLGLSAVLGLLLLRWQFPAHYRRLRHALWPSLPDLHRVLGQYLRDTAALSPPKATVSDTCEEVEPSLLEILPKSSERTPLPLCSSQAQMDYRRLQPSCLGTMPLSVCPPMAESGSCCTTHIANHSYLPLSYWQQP
Assay: Agonist activity at human TPO receptor expressed in mouse BaF-B03 cells assessed as induction of cell proliferation after 20 hrs by WST-1 assay
Format: cell-based
readoutType: ED50 (nM)

1. CCCCCC[C@H](OC)c1cccc(-c2csc(NC(=O)c3cc(Cl)c(/C=C(\C)C(=O)O)c(Cl)c3)n2)c1OC : 2.08
2. CCCCCC[C@@H](OC)c1cccc(-c2csc(NC(=O)c3cc(Cl)c(/C=C(\C)C(=O)O)c(Cl)c3)n2)c1OC : 3.09
3. CCCCCCO[C@H](C)c1cccc(-c2csc(NC(=O)c3cc(Cl)c(/C=C(\C)C(=O)O)c(Cl)c3)n2)c1OC : 1.4
4. CCCCCCO[C@@H](C)c1cccc(-c2csc(NC(=O)c3cc(Cl)c(/C=C(\C)C(=O)O)c(Cl)c3)n2)c1OC : 1.09
